Test system: E. coli ATCC25922
method: Bacterial growth minimal inhibitory concentration (microdilution, CLSI M7-A7)
Type: cell-based
conditionNotes: Escherichia coli, ATCC25922; quinolone-sensitive strain; cation-adjusted Mueller-Hinton Broth
measurementLabel: MIC (µg/mL)
Reply with just the number (in µg/mL).

Prompt: Tell me the measured MIC of COc1ccc(-c2cc3ccn(CCC(C)(C(=O)NO)S(C)(=O)=O)c3cc2F)c(F)c1 (racemic) , please.
Completion: 1

Prompt: // returns reported MIC for input C[C@@](CCn1ccc2cc(C#CC#C[C@@H]3C[C@H]3CO)c(F)cc21)(C(=O)NO)S(C)(=O)=O (relative stereo)
Completion: 0.125

Prompt: Value lookup for MIC; key = `C[C@@](CCn1ncc2cc(C#Cc3ccc(C4(O)COC4)cc3)ccc21)(C(=O)NO)S(C)(=O)=O`
Completion: 0.25

Prompt: Reported MIC, molecule CC(CCn1ncc2cc(-c3ccc(OC(F)(F)F)cc3)ccc21)(C(=O)NO)S(C)(=O)=O (racemic) : ____
Completion: 4
